Reference source: the supplement of paper PMC10567573

- methodDescription: protein stability index of a GFP-peptide fusion (GPS, HEK-293T) (PSI 1-6); higher = more stable;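 further: 24-mer peptide tiles fused after GFP, lentivirally expressed, FACS-sorted into six equal bins by GFP/DsRed ratio, decoded by Illumina sequencing, PSI is the read-weighted mean bin number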
- runConditions: treatment: MLN4924 1 uM, 8 h; c terminus: a fixed tail appended
Outcome label depends on protein stability index relative to 3: at/above gives y, below gives n.

Decide: protein stability index of PGGPCDSTLGGDIRESDPEQAPAP [TBX6] >= 3? y

What about this sequence? GEEGAPGKWQQQGDLQDTKENREE [CHGB] y

What about this sequence? TGQPLPQSIQQAMRYLRNHCLDQV [DLC1] n

What about this sequence? PAGEMKPMPLSEGKSILLFGGAAA [BCL2L13] y

What about this sequence? SALPFITYLENKGHRYPCFFNTLH [POP5] n

What about this sequence? TARVIIPLLKDEGFAVKALWGRTQ [GFOD1] n

What about this sequence? SLCTHLIYAFAGMTNHQLSTTEWN [CHIT1] y

What about this sequence? AIAMYFLPPSPRFLVMKGQEGAAS [SLC2A12] n

What about this sequence? TEDELRVRHLEEENRGIVVLGINR [AUH] y

What about this sequence? LELLSAPELKSLAKTFHLVNPNGQ [FAN1] n

What about this sequence? LSVSNNQEPDFIDDIEEKTPISNE [KMT2E] y

What about this sequence? TTIKRKREDDKLVVECVMKGVTST [FABP4] y

What about this sequence? MERPQPDSMPQDLSEALKEATKEV [HMOX1] y

What about this sequence? AGLVHVKQCIVAHPVNPPYYIPLV [CRYL1] n

What about this sequence? VTKVTAVDADAGHNAWLSYSLLPQ [PCDHGC5] n

What about this sequence? HALSGHAKVKPFDPKITCKQECLI [TPH1] n

What about this sequence? SLTVPLLGAMMLLESPIDPQPLSF [APMAP] n

What about this sequence? PCLGHTFNAGIQQAFQLPKLGALL [ZBED1] n

What about this sequence? KLSETFLQIYQYVPKDQRLQAIKA [DLC1] n

What about this sequence? LCMDWCKDKRRIVSSSQDGKVIVW [GNB5] n

What about this sequence? FSVRPGTEATISIREDEVHRLGSP [SCNN1D] y

What about this sequence? PGFSSLSLSDQMSVLQSVWMEVLV [ESRRA] n

What about this sequence? SEEAVREVHRLIEGKAPIISGVTK [TPPP] y

What about this sequence? SANFHSLDDIYYFGGQNAHNQIAI [FUT8] n

What about this sequence? MQCPVIAVNSGGPLESIDHSVTGF [ALG2] y

What about this sequence? QLQVPTLRQQCAQVLRNNPDALSD [ELOA2] y

What about this sequence? LTPKSTPVKTLPFSPSQFLNFWNK [MYBL2] n

----------
- methodDescription: protein stability index of a GFP-peptide fusion (GPS, HEK-293T) (PSI 1-6); higher = more stable
- runConditions: treatment: MLN4924 1 uM, 8 h; c terminus: a fixed tail appended
Please go through the items and note down their protein stability index.
Give the figure only, with no unit attached.

Given the sequence AAAYTFLQRNPKHELTAKYLNYYQ [P3H4] , what is its reported protein stability index? 2

What about this sequence? SIKMGKRNGLHLPEQVQNEIKSMK [NLN] 3.87

What about this sequence? YQLGEEAMEKFREDEGFLREEERP [KCNA3] 5.27

What about this sequence? VGKGEILESLQDGAAESPYAYSNG [RAB40C] 4.79

What about this sequence? LFILSTLVVDYIDEGRLVLEFSLL [SOAT1] 2.88

What about this sequence? VGHNHTYNMAPSALDSADLPPPSA [NFE2L1] 4.43

What about this sequence? GLFRKSGVKSRIQALRQMNEGAID [DLC1] 3.71

What about this sequence? AKAPPTACYAGAAPAPSQVKSKAK [CEBPB] 5.21

What about this sequence? YGSGDTPGGPCDSTLGGDIRESDP [TBX6] 5.27

What about this sequence? TKEGGMLAYYEVCSWKGATKQRIQ [CHIT1] 2.91

What about this sequence? SDLLDEKEIAKNLIQPINHTTLQC [FEM1C] 4.03

What about this sequence? IAEVCCTSIVYATEKKQTKVEFPE [KCTD10] 3.9

What about this sequence? LSPLSLAQYDSWPHYPEYFQQPAP [LOXL2] 2.87

What about this sequence? FVVLAFLTGVLCSYPNPNEDKCPG [TMEM192] 3.22

What about this sequence? WLPLATLIDEKVLILHGGVSDITD [PPEF2] 2.4

What about this sequence? TRRSSYEDSSLPSINALLQAEVLS [HNF4A] 3.15

What about this sequence? RPQLPQVLQHVRLPLLSPKFLVGT [KLHL20] 2.58

What about this sequence? ANGTVIAEFILLGLLEAPGLQPVV [OR3A1] 2.7

What about this sequence? SAHFTSGPLVPRLAGMANHGSPQL [TBX5] 3.5

What about this sequence? EPGYIDSEIGTSDQIVPEYQEDSD [TRIB1] 5.62

What about this sequence? IEIVHISTVQILTEGFPPGGGNAR [ZFYVE21] 2.72

What about this sequence? EVKPVLEVLVGKTIEQSLLEVMEE [RSPH3] 2.64

What about this sequence? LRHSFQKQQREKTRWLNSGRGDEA [ADD1] 3.92

What about this sequence? AAPFPSPAPASPAISVVGVSAGGH [TFE3] 4.16

What about this sequence? KVVECLDHARGKSQVALKIIRNVG [CLK3] 2.22

What about this sequence? QDLCCRAIVSCTPVHLIDKLPLPV [RAB40C] 2.16

What about this sequence? GFKRDYYLIRVDGKGSIKELFPTG [VPS39] 2.25

What about this sequence? VVWNAQTGEKLLELNGHTQKITAI [WDR41] 2.31

What about this sequence? TERDEIEDVKCQEDQKLQVLLTQI [TRIM15] 4.54
